Known activity change, negative = inhibition of a selection of molecules
- PROTOCOL_NOTES: AP1 Signaling Pathway (AID 357);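 further: ME-180 reporter cells stimulated with EGF at its EC50 level; on the % scale 0 is the no-effect control and ±100 the full control effect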
- MEASUREMENT_CONDITIONS: ME-180 (cervical carcinoma) AP-1-bla reporter, EGF-induced, beta-lactamase ratio, 5 h; at 17.2 µM (top of the series) unless noted
Inconclusive results are not listed. The source made the active and inactive calls. The call rests on the fitted dose curve; in most records, active means well fitted curve in either direction with a large enough effect (not every such curve was filed as active); inconclusive means small, poorly fitted or top-dose-only effect, or another doubt; inactive means flat fitted curve, though single readings scatter.
PROPERTY_LABEL: activity change, negative = inhibition

- MOLECULE: "CC(=O)[C@@]1(O)CC[C@H]2[C@@H]3CC=C4C[C@@H](O)CC[C@]4(C)[C@H]3CC[C@@]21C"
  MEASUREMENT: "0.531% (inactive)"
- MOLECULE: "CC(C)C(=O)N1CCN(CCN=Cc2c(O)n(C)c(=O)n(C)c2=O)CC1"
  MEASUREMENT: "10.2% (inactive)"
- MOLECULE: "CN1[C@@H]2CC[C@H]1CC(O[C@@H](c1ccccc1)c1ccccc1N)C2 (some centres not stated)"
  MEASUREMENT: "12.1% [at 38 µM] (inactive)"
- MOLECULE: "CCCN1CCc2cccc3c2[C@@H]1Cc1ccc(O)c(O)c1-3"
  MEASUREMENT: "6.42% [at 38 µM] (inactive)"
- MOLECULE: "N[C@@H](Cc1cc(O)c(O)cc1O)C(=O)O"
  MEASUREMENT: "-19.5% [at 38 µM] (inactive)"
- MOLECULE: "CC(=C1C(=O)c2ccccc2C1=O)N1CCN(CCN=Cc2c(O)n(C)c(=O)n(C)c2=O)CC1"
  MEASUREMENT: "-15.2% (inactive)"
- MOLECULE: "CCCCc1nc(N2CCNCC2)c(C#N)c2c1CSC(C)(C)C2"
  MEASUREMENT: "3.85% (inactive)"

---

- TESTED_TARGET: Ubiquitin carboxyl-terminal hydrolase 1 (Homo sapiens)
- PROTOCOL_NOTES: Inhibitors of USP1/UAF1: Pilot qHTS (AID 504865); further: nearly all actives have a fitted effect of over 35% in size
- MEASUREMENT_CONDITIONS: purified USP1/UAF1, Ub-rhodamine cleavage fluorescence; series mostly up to 114 µM
Records with an inconclusive call do not appear. The source made the active and inactive calls. Calls follow the shape of the dose curve; as a rule, active = well fitted inhibition curve with a large enough effect; inconclusive = small, poorly fitted or top-dose-only effect; inactive = flat fitted curve, though single readings scatter.
Labels: active, inactive

- COMPOUND: "C[C@]12CC[C@@H]3c4ccc(O)cc4C[C@@H](CCCCCCCCCS(=O)CCCC(F)(F)C(F)(F)F)C3[C@@H]1CC[C@@H]2O (some centres not stated)"
  ANSWER_LABEL: "inactive"
- COMPOUND: "NC(Cc1ccc(Oc2cc(I)c(O)c(I)c2)c(I)c1)C(=O)O (configuration not stated)"
  ANSWER_LABEL: "active"
- COMPOUND: "CC(=O)N1CCN(c2ccc(OC[C@@H]3CO[C@@](Cn4ccnc4)(c4ccc(Cl)cc4Cl)O3)cc2)CC1"
  ANSWER_LABEL: "inactive"
- COMPOUND: "O=[N+]([O-])OC1CO[C@H]2C(O[N+](=O)[O-])COC12 (some centres not stated)"
  ANSWER_LABEL: "inactive"
- COMPOUND: "O=C(NC(=O)c1c(F)cccc1F)Nc1ccc(Cl)cc1"
  ANSWER_LABEL: "inactive"
- COMPOUND: "COC[C@H]1OC(=O)c2coc3c2[C@@]1(C)C1=C(C3=O)[C@H]2CCC(=O)[C@@]2(C)C[C@H]1OC(C)=O"
  ANSWER_LABEL: "inactive"
- COMPOUND: "CC(=O)O[C@H]1C[C@H](O[C@H]2[C@@H](O)CC(O[C@H]3[C@@H](O)C[C@H](O[C@H]4CC[C@@]5(C)[C@H](CC[C@@H]6[C@@H]5CC[C@]5(C)[C@@H](C7=CC(=O)OC7)CC[C@]65O)C4)O[C@@H]3C)O[C@@H]2C)O[C@H](C)[C@H]1O[C@@H]1O[C@H](CO)[C@@H](O)[C@H](O)[C@H]1O (some centres not stated)"
  ANSWER_LABEL: "inactive"
